Would you kindly list NKL Ortho Proliferation Signal 1:2 for each of these binders?
# EXPERIMENTAL_SYSTEM: T1, orthogonal hCD122 receptor (hoRb), hCD122 with H133D and Y134F (human, UniProt P14784 27-550)
# T1 sequence: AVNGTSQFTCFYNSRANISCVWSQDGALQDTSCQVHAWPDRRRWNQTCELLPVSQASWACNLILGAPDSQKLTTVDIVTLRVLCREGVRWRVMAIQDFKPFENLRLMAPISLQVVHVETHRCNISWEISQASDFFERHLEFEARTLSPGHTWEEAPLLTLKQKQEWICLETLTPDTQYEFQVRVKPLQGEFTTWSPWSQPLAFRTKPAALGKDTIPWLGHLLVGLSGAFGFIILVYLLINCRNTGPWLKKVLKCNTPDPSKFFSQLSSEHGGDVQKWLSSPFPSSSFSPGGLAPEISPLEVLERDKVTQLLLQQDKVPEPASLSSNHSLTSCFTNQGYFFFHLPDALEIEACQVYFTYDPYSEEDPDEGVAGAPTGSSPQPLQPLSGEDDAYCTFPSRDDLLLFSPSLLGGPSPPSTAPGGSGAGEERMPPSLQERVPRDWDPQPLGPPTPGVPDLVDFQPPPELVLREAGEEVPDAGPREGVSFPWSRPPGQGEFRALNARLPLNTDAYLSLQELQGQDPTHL
# MEASUREMENT_DESCRIPTION: cell-based or functional assay
Give bare numbers.

Q74S, SQVLKA (ligand) APTSSSTKKTQLQLSQLLVLLKAILNGINNYKNPKLTRMLTFKFYMPKKATELKHLQCLEEELKPLEEVLNLASSKNFHLRPRDLISNINVIVLELKGSETTFMCEYADETATIVEFLNRWITFCQSIISTLT :: 54600
Q126K, SQVLKA (ligand) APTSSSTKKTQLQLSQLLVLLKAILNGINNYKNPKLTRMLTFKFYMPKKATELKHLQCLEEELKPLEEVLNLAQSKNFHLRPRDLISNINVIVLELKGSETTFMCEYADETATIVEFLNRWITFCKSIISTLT :: 6510
L18K, SQVLKA (ligand) APTSSSTKKTQLQLSQLKVLLKAILNGINNYKNPKLTRMLTFKFYMPKKATELKHLQCLEEELKPLEEVLNLAQSKNFHLRPRDLISNINVIVLELKGSETTFMCEYADETATIVEFLNRWITFCQSIISTLT :: 22200

q: Query: NKL Ortho Proliferation Signal 1:2; subject: R38W, SQVLKA (ligand) APTSSSTKKTQLQLSQLLVLLKAILNGINNYKNPKLTWMLTFKFYMPKKATELKHLQCLEEELKPLEEVLNLAQSKNFHLRPRDLISNINVIVLELKGSETTFMCEYADETATIVEFLNRWITFCQSIISTLT
a: 36700
